tested on: PRKD2; conditions: concentration: 1 μM, replicates: in singlicate; n = 1;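 also: KINOMEscan kinase panel screen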
EXPERIMENTAL ENDPOINT: %Inh (%)
Return type: number; implicit unit %.

Use these answered entries as a reference point.
- COMPOUND STRUCTURE: "CN1CCN(Cc2ccc(NC(=O)Nc3ccc(N(C)c4ccnc(Nc5ccc(CS(C)(=O)=O)cc5)n4)cc3)cc2)CC1.Cl"
  UNIT STRING: "%"
  %Inh: 27
- COMPOUND STRUCTURE: "N#Cc1cnc2cc(-c3cnc(CNCCN4CCOCC4)s3)ccc2c1Nc1ccc(Oc2ccccc2)cc1"
  UNIT STRING: "%"
  %Inh: 18
- COMPOUND STRUCTURE: "Cc1cc(-c2ccnc(Nc3cccc(C#N)c3)n2)cc(C)c1O"
  UNIT STRING: "%"
  %Inh: 0
- COMPOUND STRUCTURE: "COc1cccc(C2=C(Nc3cccc(O)c3)C(=O)NC2=O)c1"
  UNIT STRING: "%"
  %Inh: 0

# %Inh (molecule: O=C(Nc1n[nH]c2nc(-c3ccccc3)ccc12)C1CC1 ) is 7

# %Inh (molecule: CCOc1nccc(-c2c(-c3ccc(F)cc3)ncn2C2CCNCC2)n1 ) is 35

# %Inh (molecule: CSc1ccc(NC2=C(c3ccc(Cl)cc3)C(=O)NC2=O)cc1 ) is 0

# %Inh (molecule: CCNc1nccc(-c2c(-c3ccc(F)cc3)ncn2C2CCN(C)CC2)n1 ) is 0

# %Inh (molecule: Cc1cccc(Nc2nc(N[C@H]3CCCC[C@H]3N)ncc2C(N)=O)c1.Cl ) is 56

---

Each item that follows carries a reported %Inh.
tested on: YANK3; construct: gene STK32C; conditions: concentration: 1 μM, replicates: in singlicate; n = 1
Return type: number; implicit unit %.

Use these answered entries as a reference point.
- MOLECULE: "Cl.Cl.NCC(NC(=O)c1cc(-c2cccnc2)c(-c2ccnc3[nH]ccc23)s1)c1ccccc1 (stereo not drawn) [GSK1323434]"
  EXPERIMENTAL ENDPOINT: "%Inh"
  UNIT STRING: "%"
  REPORTED: 14
- MOLECULE: "O=C(Nc1n[nH]c2nc(-c3ccccc3O)ccc12)C1CC1 [SB-711880]"
  EXPERIMENTAL ENDPOINT: "%Inh"
  UNIT STRING: "%"
  REPORTED: 0
- MOLECULE: "COc1ccc(C)c(Nc2ccnc(Nc3ccc(-c4cnc[nH]4)cc3)n2)c1.Cl [GW784041]"
  EXPERIMENTAL ENDPOINT: "%Inh"
  UNIT STRING: "%"
  REPORTED: 0
- MOLECULE: "N#CC1(c2cccc(C(=O)Nc3cccc(Oc4ccc5nc(NC(=O)C6CC6)sc5n4)c3)c2)CC1"
  EXPERIMENTAL ENDPOINT: "%Inh"
  UNIT STRING: "%"
  REPORTED: 0
- MOLECULE: "Cn1cc(-c2cnc(N)c3c(-c4ccc5c(c4)CCN5C(=O)Cc4ccccc4)csc23)cn1 [GSK2593074]"
  EXPERIMENTAL ENDPOINT: "%Inh"
  UNIT STRING: "%"
  REPORTED: 0

# %Inh (molecule: Cc1ccccc1CC(=O)N1CCc2cc(-c3cn(C)c4ncnc(N)c34)ccc21 [GSK2603346] ) is 22

# %Inh (molecule: CN(c1ccc(F)c(NC(=O)c2cccc(OC(C)(C)C#N)c2Cl)c1)c1ccc2nc(NC(=O)C3CC3)sc2n1 ) is 0

# %Inh (molecule: Fc1cc(Cl)ccc1Nc1ccnc2cc(-c3ccc(CN4CCSCC4)o3)ccc12 [GW560106] ) is 1

# %Inh (molecule: CN(c1ccc(NC(=O)N2CCN(CCCN3CCOCC3)CC2)cc1)c1ccnc(Nc2ccc(CS(C)(=O)=O)cc2)n1.Cl [GW830899] ) is 0

# %Inh (molecule: Cn1cc(-c2ccc3c(c2)CCN3C(=O)Cc2cc(F)cc(F)c2F)c2c(N)ncnc21 [GSK2634140] ) is 0

# %Inh (molecule: Cn1cc(-c2ccc3c(c2)CCN3C(=O)Cc2cc(F)cc(C(F)(F)F)c2)c2c(N)ncnc21 [GSK2635225] ) is 0

# %Inh (molecule: Cc1ccc(O)cc1Nc1ccnc2cc(-c3ccc(CN4CCCCC4)o3)ccc12 [GW557777] ) is 0

# %Inh (molecule: O=C1NC(=O)C(c2ccccc2Cl)=C1Nc1cccc(Cl)c1 [SB-342409] ) is 100

# %Inh (molecule: CC(C)NCC(Cc1ccccc1)NC(=O)c1cc(Br)c(-c2ccnc3[nH]ccc23)s1.Cl.Cl (stereo not drawn) [GSK1383281] ) is 0

# %Inh (molecule: Fc1cc(Cl)ccc1Nc1ccnc2cc(-c3ccc(CN4CCOCC4)o3)ccc12 [GW560109] ) is 24

# %Inh (molecule: Cc1ccc(-c2ccc3occ(-c4ccc(S(C)=O)cc4)c3c2)nn1 (stereo not drawn) ) is 24

# %Inh (molecule: COC(=O)Nc1nc2ccc(Oc3ccc(CC(=O)Nc4cc(C(F)(F)F)ccc4F)cc3)cc2[nH]1 [GW680903] ) is 0

# %Inh (molecule: O=C(O)C(F)(F)F.O=c1[nH]ccc2nc(N[C@@H]3CCNC3)nc(Nc3cc(Cl)cc(Cl)c3)c12 [GSK2188764] ) is 9

# %Inh (molecule: Nc1ncc(-c2cn[nH]c2)c2scc(-c3ccc4c(c3)CCN4C(=O)Cc3ccccc3)c12 [GSK2593067] ) is 30

# %Inh (molecule: COc1cccc(C2=C(Nc3cccc(O)c3)C(=O)NC2=O)c1 [SB-390771] ) is 2

# %Inh (molecule: NCCC(NC(=O)c1cc(Br)c(-c2ccnc3[nH]ccc23)s1)c1ccccc1.O=C(O)C(F)(F)F.O=C(O)C(F)(F)F (stereo not drawn) [GSK1307810] ) is 18

# %Inh (molecule: CSc1ccc(NC2=C(c3ccc(Cl)cc3)C(=O)NC2=O)cc1 [SB-317658] ) is 33

# %Inh (molecule: CC(=O)Nc1cn2nc(Oc3cccc(NC(=O)c4cccc(C(F)(F)F)c4)c3)ccc2n1 ) is 0

---

Each item that follows carries a reported %Inh.
test system: EGFR; settings: concentration: 1 μM, replicates: in singlicate; n = 1
Return type: number; implicit unit %.

- COMPOUND: "Nc1ncnc2scc(-c3ccc(NC(=O)Cc4cc(F)ccc4F)cc3)c12.O=C(O)C(F)(F)F"
  MEASURED ON: "EGFR"
  %Inh (%): 80
- COMPOUND: "CN(c1ccc2c(c1)nc(NCc1ccccc1)n2C)c1ccnc(Nc2ccc(CS(C)(=O)=O)cc2)n1.Cl"
  MEASURED ON: "EGFR"
  %Inh (%): 0
- COMPOUND: "Cc1ccccc1CC(=O)N1CCc2cc(-c3cn(C)c4ncnc(N)c34)ccc21"
  MEASURED ON: "EGFR"
  %Inh (%): 22
- COMPOUND: "Cl.Cl.NCC(NC(=O)c1cc(-c2cccnc2)c(-c2ccnc3[nH]ccc23)s1)c1ccccc1 (centres unmarked)"
  MEASURED ON: "EGFR"
  %Inh (%): 72
- COMPOUND: "Cc1ccc(NC(=O)c2ccnc(N3CCCCC3)c2)cc1-c1ccc(C(=O)NCC2CC2)cc1"
  MEASURED ON: "EGFR"
  %Inh (%): 26

# %Inh (compound: COc1cc(Nc2ccnc3cc(-c4ccncc4)ccc23)cc(OC)c1OC.Cl ) is 58

# %Inh (compound: CC(C)NCC(Cc1ccccc1)NC(=O)c1cc(Br)c(-c2ccnc3[nH]ccc23)s1.Cl.Cl (centres unmarked) ) is 26

# %Inh (compound: Cn1cc(-c2ccc3c(c2)CCN3C(=O)Cc2cc(F)cc(C(F)(F)F)c2)c2c(N)ncnc21 ) is 23

# %Inh (compound: CC(=O)Nc1cn2nc(Oc3cccc(NC(=O)c4cccc(C(F)(F)F)c4)c3)ccc2n1 ) is 58

# %Inh (compound: Fc1cc(Cl)ccc1Nc1ccnc2cc(-c3ccc(CN4CCSCC4)o3)ccc12 ) is 71

# %Inh (compound: Cc1ccc(NC(=O)c2cccc(N3CCCCC3)c2)cc1-c1ccc(C(=O)NCC2CC2)cc1 ) is 35

# %Inh (compound: Cc1cc(-c2c(-c3ccc(F)cc3)ncn2CCCN2CCOCC2)nc(N)n1 ) is 0

# %Inh (compound: COC(=O)Nc1nc2ccc(Oc3ccc(NC(=O)Nc4cc(C(F)(F)F)ccc4F)cc3)cc2[nH]1.Cl ) is 29

# %Inh (compound: COc1cccc2c(-c3ccncc3)c(-c3ccc(F)cc3)nn12 ) is 71

# %Inh (compound: Cn1cc(-c2ccc3c(c2)CCN3C(=O)Cc2cc(F)cc(F)c2F)c2c(N)ncnc21 ) is 16

# %Inh (compound: COC(=O)Nc1nc2cc(Oc3ccc(NC(=O)Nc4cccc(SC)c4)cc3)ccc2[nH]1.Cl ) is 29

# %Inh (compound: Cc1cc(-c2ccnc(Nc3cccc(C#N)c3)n2)cc(C)c1O ) is 38
